Known melting point of a selection of compounds

State the recorded melting point for this entry: O=C(O)C(=O)CC(Cc1ccc2ccccc2c1)C(=O)O (centres unmarked)
> 220 °C (dec.)

Record request: melting point value, item O=C(O)CC(Cc1ccccc1)C(=O)C(=O)O (centres unmarked)
> 250 °C (dec.)

Name the reported melting point value associated with the compound O=C(O)CC(CCCc1ccccc1)C(=O)C(=O)O (centres unmarked)
> 220 °C (dec.)

Look at this compound and give its reported melting point. COc1ccc(CC(CC(=O)O)C(=O)C(=O)O)cc1 (centres unmarked)
> 260 °C (dec.)

Quick one: melting point for O=C(O)CC(Cc1ccc(OC(F)(F)F)cc1)C(=O)C(=O)O (centres unmarked) ?
> 260 °C (dec.)

----------
- MEASUREMENT_TARGET: human AspH (His6-AspH315-758) (Homo sapiens)
- Construct: N-Terminally His6-tagged human AspH315-758 (His6-AspH315-758) was produced in Escherichia coli BL21 (DE3); made in house; host or cells: Escherichia coli BL21 (DE3), pET-28a(+) vector
- EXPERIMENTAL_PROTOCOL: SPE-MS AspH inhibition assay
- Type: biochemical
- STUDY_CONDITIONS: 50 nM His6-AspH315–758, 1.0 μM hFX-CP101–119, 3 μM 2OG; mean ± SD, n = 3; read-out: IC50 (inhibition of AspH)
ENDPOINT: IC50 (µM)

{"MOLECULE": "O=C(O)CC(Cc1ccc(OC(F)(F)F)cc1)C(=O)C(=O)O (centres unmarked) [compound 23]", "MEASUREMENT_TARGET": "human AspH (His6-AspH315-758) (Homo sapiens)", "ENDPOINT": "IC50", "RECORDED_RESULT": 6.3}
{"MOLECULE": "CC(C)(C)CCC(CC(=O)C(=O)O)C(=O)O (centres unmarked) [compound 30]", "MEASUREMENT_TARGET": "human AspH (His6-AspH315-758) (Homo sapiens)", "ENDPOINT": "IC50", "RECORDED_RESULT": 0.7}

1 = Cc1cc(C)cc(CC(CC(=O)O)C(=O)C(=O)O)c1 (centres unmarked) [compound 25]
2 = CC(C)CC(CC(=O)C(=O)O)C(=O)O (centres unmarked) [compound 29]
Of the two listed items, which has the higher IC50? First: 1 Second: 2 // respond with label for picked entry
1

----------
- MEASUREMENT_TARGET: human AspH (His6-AspH315-758) (Homo sapiens)
- Construct: N-Terminally His6-tagged human AspH315-758 (His6-AspH315-758) was produced in Escherichia coli BL21 (DE3); made in house; host or cells: Escherichia coli BL21 (DE3), pET-28a(+) vector
- EXPERIMENTAL_PROTOCOL: SPE-MS AspH inhibition assay
- Format: biochemical
- STUDY_CONDITIONS: IC50 at 200 μM 2OG (ESI Table S1), assay concentration of 200 μM 2OG; mean ± SD, n = 3
- Procedure: 6. Recombinant AspH production and purification […] centrifuged (1000 rpm, 60 s) and analysed by MS. […] Z’-factors were calculated […]
pIC50: −log10 of the molar value.
ENDPOINT: pIC50

{"MOLECULE": "CCC(CC(=O)O)C(=O)C(=O)O (stereo not shown)", "ENDPOINT": "pIC50", "RECORDED_RESULT": 4.65}
{"MOLECULE": "O=C(O)C(=O)CC(Cc1ccc2ccccc2c1)C(=O)O (stereo not shown)", "ENDPOINT": "pIC50", "RECORDED_RESULT": 5.60}

a = CC(C)CC(CC(=O)C(=O)O)C(=O)O (stereo not shown)
b = CC(C)(CC(=O)C(=O)O)C(=O)O
Compare a and b by numeric pIC50 and name the larger one. State the label of the item chosen.
b
(b: 5.19, a: 4.97)

----------
- MEASUREMENT_TARGET: human AspH (His6-AspH315-758) (Homo sapiens)
- Construct: N-Terminally His6-tagged human AspH315-758 (His6-AspH315-758) was produced in Escherichia coli BL21 (DE3); made in house; host or cells: Escherichia coli BL21 (DE3), pET-28a(+) vector
- EXPERIMENTAL_PROTOCOL: SPE-MS AspH inhibition assay
- Type: biochemical
- STUDY_CONDITIONS: IC50 at 400 μM 2OG (ESI Table S1), assay concentration of 400 μM 2OG; mean ± SD, n = 3
pIC50: −log10 of the molar value.
ENDPOINT: pIC50

a = CCC(CC(=O)O)C(=O)C(=O)O (stereo not shown)
b = CC(C)(CC(=O)C(=O)O)C(=O)O
c = O=C(O)C(=O)CC(Cc1ccc2ccccc2c1)C(=O)O (stereo not shown)
d = CC(C)CC(CC(=O)C(=O)O)C(=O)O (stereo not shown)
Provide the items ranked by increasing pIC50. In your reply, arrange the labels in the requested order.
a, d, b, c

----------
- MEASUREMENT_TARGET: human AspH (Homo sapiens, UniProt Q12797)
- EXPERIMENTAL_PROTOCOL: SPE-MS AspH turnover assay in the absence of 2OG (2OG derivative as cosubstrate);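 note: percent conversion = hydroxylated cyclic peptide peak area relative to summed substrate plus product areas, taken from +2 charge state ion chromatograms by solid phase extraction MS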
- STUDY_CONDITIONS: 330 μM 2OG or 2OG derivative, 0.1 μM AspH, 2 μM hFX-CP101-119, 50 μM FAS, t = 15 min
ENDPOINT: AspH-catalyzed substrate conversion (hydroxylation of hFX-CP101-119)

Completed entries (count: 3):
{"MOLECULE": "O=C(O)CC(CCCc1ccccc1)C(=O)C(=O)O (stereo not shown)", "RECORDED_RESULT": "< 1%"}
{"MOLECULE": "O=C(O)CC(Cc1ccccc1)C(=O)C(=O)O (stereo not shown)", "RECORDED_RESULT": "< 1%"}
{"MOLECULE": "O=C(O)C(=O)CC(CCCc1ccccc1)C(=O)O (stereo not shown)", "RECORDED_RESULT": "< 1%"}

Report AspH-catalyzed substrate conversion (hydroxylation of hFX-CP101-119) for CC(CC(=O)O)C(=O)C(=O)O (stereo not shown) please.
> 95%

What value of measured AspH-catalyzed substrate conversion (hydroxylation of hFX-CP101-119) is listed for Cc1cc(C)cc(CC(CC(=O)O)C(=O)C(=O)O)c1 (stereo not shown) ?
< 1%

Fill in the blank: the reported AspH-catalyzed substrate conversion (hydroxylation of hFX-CP101-119) of CCCC(CC(=O)O)C(=O)C(=O)O (stereo not shown) is ____.
< 1%

Which AspH-catalyzed substrate conversion (hydroxylation of hFX-CP101-119) is listed for CCC(CC(=O)O)C(=O)C(=O)O (stereo not shown) ?
< 1%

State the recorded AspH-catalyzed substrate conversion (hydroxylation of hFX-CP101-119) for this entry: "O=C(O)C(=O)c1ccc(C(=O)O)cc1Br"
~20%

Field request: AspH-catalyzed substrate conversion (hydroxylation of hFX-CP101-119) | item: CC1(C)C(C(=O)O)C1C(=O)C(=O)O (stereo not shown)
< 1%

Could you tell me which AspH-catalyzed substrate conversion (hydroxylation of hFX-CP101-119) is on file for CCCC(CC(=O)C(=O)O)C(=O)O (stereo not shown) ?
< 1%

May I ask what AspH-catalyzed substrate conversion (hydroxylation of hFX-CP101-119) has been recorded for CC(CC(=O)C(=O)O)C(=O)O (stereo not shown) ?
~10%

Quick check: AspH-catalyzed substrate conversion (hydroxylation of hFX-CP101-119) of "O=C(O)C(=O)c1ccc(C(=O)O)c(F)c1" ?
~8%

Please give the measured AspH-catalyzed substrate conversion (hydroxylation of hFX-CP101-119) for this molecule: "Cc1cc(C(=O)O)ccc1C(=O)C(=O)O"
~5%

----------
Each entry below carries its reported AspH-catalyzed substrate conversion (hydroxylation of hFX-CP101-119).
- MEASUREMENT_TARGET: human AspH (Homo sapiens, UniProt Q12797)
- Sequence (Q12797 315-758): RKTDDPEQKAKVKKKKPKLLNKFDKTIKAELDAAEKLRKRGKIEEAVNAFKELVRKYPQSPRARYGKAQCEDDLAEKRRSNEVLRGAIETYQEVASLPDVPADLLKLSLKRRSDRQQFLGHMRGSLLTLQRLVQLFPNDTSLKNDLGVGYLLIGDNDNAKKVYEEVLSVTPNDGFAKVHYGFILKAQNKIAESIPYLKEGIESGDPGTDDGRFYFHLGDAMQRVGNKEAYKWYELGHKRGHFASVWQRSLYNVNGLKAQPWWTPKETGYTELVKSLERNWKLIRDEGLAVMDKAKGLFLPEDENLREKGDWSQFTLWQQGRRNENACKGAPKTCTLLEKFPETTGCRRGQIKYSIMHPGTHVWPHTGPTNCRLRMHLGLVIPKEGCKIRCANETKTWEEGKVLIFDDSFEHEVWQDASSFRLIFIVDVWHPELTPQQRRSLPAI
- EXPERIMENTAL_PROTOCOL: SPE-MS AspH turnover assay in the absence of 2OG (2OG derivative as cosubstrate)
- STUDY_CONDITIONS: 330 μM 2OG or 2OG derivative, 0.1 μM AspH, 2 μM hFX-CP101-119, 50 μM FAS, t = 15 min

Reported AspH-catalyzed substrate conversion (hydroxylation of hFX-CP101-119), compound O=C(O)C(=O)CC(Cc1ccccc1)C(=O)O (stereo not drawn) : ____
< 1%

Can you share its AspH-catalyzed substrate conversion (hydroxylation of hFX-CP101-119)? I mean this compound: "CC(C)(CC(=O)C(=O)O)C(=O)O"
< 1%

Tell me the measured AspH-catalyzed substrate conversion (hydroxylation of hFX-CP101-119) of "O=C(O)C(=O)c1ccc(C(=O)O)cc1F" , please.
~45%
